Numbers sourced from ChEMBL document CHEMBL1144388.

List of Ki tested on Carbonic anhydrase 9 (Homo sapiens, UniProt Q16790).
READOUT: Ki (nM)

[[record]]
smiles_input = "NS(=O)(=O)c1ccc(NS(=O)(=O)c2ccc(N/C(S)=N/CCN3CCOCC3)cc2)cc1"
readout = "Ki"
test_result = 5.6

[[record]]
smiles_input = "CN(C)CC/N=C(\\S)Nc1ccc(S(=O)(=O)NCCc2ccc(S(N)(=O)=O)cc2)cc1"
readout = "Ki"
test_result = 6.1

[[record]]
smiles_input = "CN(C)CC/N=C(\\S)Nc1ccc(S(=O)(=O)NCc2ccc(S(N)(=O)=O)cc2)cc1"
readout = "Ki"
test_result = 5.4

